Provenance of the data: PubChem BioAssay (Tox21)

# TARGET_OF_ASSAY: Cytochrome P450 1A2 (Homo sapiens) (UniProt P05177)
# Sequence (P05177 whole entry, looked up): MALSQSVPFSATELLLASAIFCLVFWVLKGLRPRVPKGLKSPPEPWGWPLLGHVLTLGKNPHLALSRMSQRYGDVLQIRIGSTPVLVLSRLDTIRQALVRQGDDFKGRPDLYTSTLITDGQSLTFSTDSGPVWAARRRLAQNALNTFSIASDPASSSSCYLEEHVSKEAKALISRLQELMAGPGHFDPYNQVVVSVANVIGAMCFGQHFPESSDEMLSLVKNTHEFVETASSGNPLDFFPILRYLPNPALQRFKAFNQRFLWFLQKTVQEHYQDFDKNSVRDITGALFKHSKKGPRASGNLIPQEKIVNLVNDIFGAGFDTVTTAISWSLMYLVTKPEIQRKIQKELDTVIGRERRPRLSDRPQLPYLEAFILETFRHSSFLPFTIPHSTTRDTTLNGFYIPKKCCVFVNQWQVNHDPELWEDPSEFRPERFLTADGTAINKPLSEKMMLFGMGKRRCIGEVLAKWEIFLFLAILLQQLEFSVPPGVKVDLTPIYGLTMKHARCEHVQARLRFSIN
# TEST: Cytochrome P450 Family 1 Subfamily A Member 2 (CYP1A2) small molecule antagonists: luciferase reporter qHTS assay (AID 1671199); further: nearly all actives have a fitted effect of over 50% in size
# PARTICULARS: P450-Glo CYP1A2 enzyme, luciferin luminescence, 1 h; series mostly up to 115 µM
Records with an inconclusive call do not appear. Calls of active or inactive are those of the source. The call rests on the fitted dose curve; in most records, active means well fitted inhibition curve with a large enough effect in the repeat runs; inconclusive means weak or mixed curves; inactive means no such curve, though single readings can be large or run the other way.
Labels: active, inactive

COMPOUND | TARGET_OF_ASSAY | ASSIGNED_CATEGORY
CC1COC(Cn2cncn2)(c2ccc(Oc3ccc(Cl)cc3)cc2Cl)O1 (configuration not stated) | Cytochrome P450 1A2 (Homo sapiens) (UniProt P05177) | active
CC(c1ccccc1)(c1ccc(O)cc1)c1ccc(O)cc1 | Cytochrome P450 1A2 (Homo sapiens) (UniProt P05177) | inactive
COc1ccc(C(c2ccc(OC)cc2)C(Cl)(Cl)Cl)cc1 | Cytochrome P450 1A2 (Homo sapiens) (UniProt P05177) | active
c1ccc2c(c1)Sc1ccccc1N2CC1CN2CCC1CC2 (configuration not stated) | Cytochrome P450 1A2 (Homo sapiens) (UniProt P05177) | inactive
Clc1ccccc1-c1ccccc1Cl | Cytochrome P450 1A2 (Homo sapiens) (UniProt P05177) | inactive
Oc1c(I)cc(I)cc1I | Cytochrome P450 1A2 (Homo sapiens) (UniProt P05177) | active
Cc1ccc2nc3sc(=O)sc3nc2c1 | Cytochrome P450 1A2 (Homo sapiens) (UniProt P05177) | active
ClC1=C(Cl)[C@]2(Cl)[C@@H]3[C@@H](Cl)[C@H]4O[C@H]4[C@@H]3C1(Cl)C2(Cl)Cl | Cytochrome P450 1A2 (Homo sapiens) (UniProt P05177) | inactive
Nc1ccc([N+](=O)[O-])cc1 | Cytochrome P450 1A2 (Homo sapiens) (UniProt P05177) | active
CO/C=C(/C(=O)OC)c1ccccc1Oc1cc(Oc2ccccc2C#N)ncn1 | Cytochrome P450 1A2 (Homo sapiens) (UniProt P05177) | active
N#Cc1cc([N+](=O)[O-])ccc1N | Cytochrome P450 1A2 (Homo sapiens) (UniProt P05177) | active
O=[N+]([O-])c1c(Cl)c(Cl)cc(Cl)c1Cl | Cytochrome P450 1A2 (Homo sapiens) (UniProt P05177) | active

----------
# TARGET_OF_ASSAY: Acetylcholinesterase (Homo sapiens) (UniProt P22303)
# Sequence (P22303 whole entry, looked up): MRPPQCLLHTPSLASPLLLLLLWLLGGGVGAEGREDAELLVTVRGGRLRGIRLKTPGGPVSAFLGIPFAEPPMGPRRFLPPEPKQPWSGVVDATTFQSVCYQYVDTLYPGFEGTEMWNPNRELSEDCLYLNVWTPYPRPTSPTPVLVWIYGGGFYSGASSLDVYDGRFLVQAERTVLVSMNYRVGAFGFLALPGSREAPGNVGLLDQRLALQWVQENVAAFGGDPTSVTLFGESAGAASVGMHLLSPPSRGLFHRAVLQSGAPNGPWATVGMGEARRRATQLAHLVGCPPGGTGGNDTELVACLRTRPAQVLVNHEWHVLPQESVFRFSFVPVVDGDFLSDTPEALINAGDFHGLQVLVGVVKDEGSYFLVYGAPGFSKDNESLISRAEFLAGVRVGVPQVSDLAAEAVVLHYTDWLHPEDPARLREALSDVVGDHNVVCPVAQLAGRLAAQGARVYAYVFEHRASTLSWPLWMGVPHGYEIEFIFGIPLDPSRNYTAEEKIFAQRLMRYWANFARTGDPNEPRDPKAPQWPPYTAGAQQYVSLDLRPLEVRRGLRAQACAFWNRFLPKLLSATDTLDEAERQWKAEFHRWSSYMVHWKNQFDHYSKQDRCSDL
# TEST: Acetylcholinesterase (AChE) small molecule antagonists: fluorescence cell-based qHTS assay (AID 1347398); further: nearly all actives have a fitted effect of over 50% in size
# PARTICULARS: SH-SY5Y cells; AChE activity; series mostly up to 115 µM
Inconclusive results are not listed. Activity calls are given as the source filed them. The call rests on the fitted dose curve.

COMPOUND | outcome
CC1CN(c2ccccc2)NC1=O (stereo unspecified) | inactive
CC(=O)OC/C=C(C)/C=C/C=C(C)/C=C/C1=C(C)CCCC1(C)C | inactive
CN(C(=O)CN(CCO)CC(=O)N(C)C(C)(C)Cc1ccccc1)C(C)(C)Cc1ccccc1 | inactive
Nc1nc(F)nc2c1ncn2[C@@H]1O[C@H](CO)[C@@H](O)[C@@H]1O | inactive
O=C(Oc1ccccc1)c1ccccc1 | inactive
OC[C@@H](O)C(O)[C@@H](O)CO (stereo partly specified) | inactive

----------
# TEST: qHTS assay for small molecule disruptors of the mitochondrial membrane potential (AID 720635)
# PARTICULARS: HepG2 mitochondrial membrane potential, Mito-MPS dye ratio; series mostly up to 83.2 µM
Records with an inconclusive call do not appear. The source made the active and inactive calls. The call rests on the fitted dose curve; in most records, active means well fitted inhibition curve with a large enough effect in the signal ratio in the repeat runs; inconclusive means weak or mixed curves, or effect the other way; inactive means flat fitted curve, though single readings scatter; the % refers to the signal ratio.
Labels: T = active, F = inactive

COMPOUND | ASSIGNED_CATEGORY
CCCC(C)(COC(N)=O)COC(=O)NC1CC1 (centres undefined) | F
C=CCC1([C@@H](C)CCC)C(=O)NC(=O)NC1=O | F
CCN(CC)CCO[C@H]1CC[C@@]2(C)C(=CC[C@@H]3[C@@H]2CC[C@]2(C)C(=O)CC[C@@H]32)C1 | F
C=C[C@H]1CN2CC[C@H]1C[C@@H]2[C@@H](O)c1ccnc2ccccc12 | T
CC1(C)S[C@@H]2[C@H](N)C(=O)N2[C@H]1C(=O)O | F
CCC(=O)O[C@@](Cc1ccccc1)(c1ccccc1)[C@@H](C)CN(C)C | F
CCN1C[C@]2(COC)[C@H](O)C[C@H](OC)[C@@]34[C@@H]5C[C@@]6(O)[C@H](OC(=O)c7ccccc7)[C@@H]5[C@@](OC(C)=O)([C@@H]([C@H](OC)[C@H]23)[C@@H]14)[C@@H](O)[C@@H]6OC | F
COc1ccc(OC)c([C@@H](O)[C@H](C)N)c1 | F
CN1C(=O)CC(=O)N(c2ccccc2)c2cc(Cl)ccc21 | F
